Numbers sourced from patent US20230339882A1.

- experiment-notes: In vitro metabolic stability in liver microsomes, dog
- Assay type: in vitro ADME
- condition-label: dog liver microsomes
measurement-name: CLint (µL/min/mg protein) dog
Number first, unit second.

Known results for compounds:
GET /values?readout=CLint (µL/min/mg protein) dog&item= N[C@@H]1c2ccccc2CC12CCN(c1ncc(C#CCNC(=O)c3ccccc3)nc1CO)CC2 [Compound A45]
9.6 µL/min/mg protein

GET /values?readout=CLint (µL/min/mg protein) dog&item= N[C@@H]1c2ccccc2CC12CCN(c1ncc(C#CCOc3ccc4c(c3)NC(=O)CC4)nc1CO)CC2 [Compound A22]
13.6 µL/min/mg protein

GET /values?readout=CLint (µL/min/mg protein) dog&item= N[C@@H]1c2ccccc2CC12CCN(c1ncc(C#CCNc3ncco3)nc1CO)CC2 [Compound A60]
10.8 µL/min/mg protein

GET /values?readout=CLint (µL/min/mg protein) dog&item= N[C@@H]1c2ccccc2CC12CCN(c1ncc(C#CCOc3cccc(C(F)(F)F)c3)nc1CO)CC2 [Compound A13]
0.9 µL/min/mg protein

GET /values?readout=CLint (µL/min/mg protein) dog&item= NC(=O)c1ccc(OCC#Cc2cnc(N3CCC4(CC3)Cc3ccccc3[C@H]4N)c(CO)n2)cc1 [Compound A17]
10.6 µL/min/mg protein

Consider the additional compound presented here.
GET /values?readout=CLint (µL/min/mg protein) dog&item= N[C@@H]1c2ccccc2CC12CCN(c1ncc(C#CCOc3ccc(S(N)(=O)=O)cc3)nc1CO)CC2 [Compound A32]
1.9 µL/min/mg protein

###

So I've got a bunch of compounds here, and I need their CLint (µL/min/mg protein) rat values.
- experiment-notes: In vitro metabolic stability in liver microsomes, rat
- Format: in vitro ADME
Answers are plain numbers, in µL/min/mg protein.

Known results for compounds:
GET /values?readout=CLint (µL/min/mg protein) rat&item= N[C@@H]1c2ccccc2CC12CCN(c1ncc(C#CCOc3ccc(S(N)(=O)=O)cc3)nc1CO)CC2 [Compound A32]
14.7

GET /values?readout=CLint (µL/min/mg protein) rat&item= N[C@@H]1c2ccccc2CC12CCN(c1ncc(C#CCOc3cccc(C(F)(F)F)c3)nc1CO)CC2 [Compound A13]
2.4

GET /values?readout=CLint (µL/min/mg protein) rat&item= NC(=O)c1ccc(OCC#Cc2cnc(N3CCC4(CC3)Cc3ccccc3[C@H]4N)c(CO)n2)cc1 [Compound A17]
15.9

GET /values?readout=CLint (µL/min/mg protein) rat&item= N[C@@H]1c2ccccc2CC12CCN(c1ncc(C#CCOc3ccc4c(c3)NC(=O)CC4)nc1CO)CC2 [Compound A22]
20.7

GET /values?readout=CLint (µL/min/mg protein) rat&item= NC(=O)c1ccc(OCC#Cc2cnc(N3CCC4(CC3)Cc3ccccc3[C@H]4N)c(CO)n2)cc1F [Compound A50]
11.4

Give me CLint (µL/min/mg protein) rat for each of these compounds, listed below.
1. N[C@@H]1c2ccccc2CC12CCN(c1ncc(C#CCNc3ncco3)nc1CO)CC2 [Compound A60]
2. NC(=O)c1ccc(NCC#Cc2cnc(N3CCC4(CC3)Cc3ccccc3[C@H]4N)c(CO)n2)cc1 [Compound A48]
3. N[C@@H]1c2ccccc2CC12CCN(c1ncc(C#CCOc3ccc4c(c3)CNC4=O)nc1CO)CC2 [Compound A51]
4. N[C@@H]1c2ccccc2CC12CCN(c1ncc(C#CCNC(=O)c3ccccc3)nc1CO)CC2 [Compound A45]

10.4
15.8
12.5
7.9
